- Test system: amylin
- PROCEDURE SUMMARY: NTA of amylin aggregation, alone or with amylin derivatives
- Format: biochemical, human
- CONDITION DESCRIPTION: NTA, 10 min, 37 °C, amylin 50 μmol L^−1 alone (A) or with 250 μmol L^−1 derivative, 10 mmol L^−1 sodium phosphate, 50 mmol L^−1 NaCl, pH 7.4; duplicate; p < 0.05 less than A: n1, n5, m5
Marks after values point to notes of the source that are not given here.
Listed substances paired with reported Concentration of aggregates 100–150 nm, 10 min

The examples below pair each entry with its known result.
[
  {
    "SUBSTANCE": "FLVHSS [n3]",
    "RESULT": "2.0 ×10^7 aggregates/mL"
  },
  {
    "SUBSTANCE": "STNVGS [n5]",
    "RESULT": "0.1* ×10^7 aggregates/mL"
  },
  {
    "SUBSTANCE": "Amylin: chemically synthesized full-length human amylin, 37 amino acid long peptide (KCNTATCATQRLANFLVHSSNNFGAILSSTNVGSNTY; Islet amyloid polypeptide; UniProt P10997 34-70, looked up) [reference compound]",
    "RESULT": "5.7 ×10^7 aggregates/mL"
  },
  {
    "SUBSTANCE": "FLVHSS* [m3]",
    "RESULT": "2.1 ×10^7 aggregates/mL"
  },
  {
    "SUBSTANCE": "NFGAIL [n4]",
    "RESULT": "3.8 ×10^7 aggregates/mL"
  }
]

(Q) So what does the record say about Concentration of aggregates 100–150 nm, 10 min for NFGAIL* [m4] ?
(A) 2.7 ×10^7 aggregates/mL

(Q) What do you have for STNVGS* [m5] ?
(A) 0.9* ×10^7 aggregates/mL

---

- Tested on: amylin
- PROCEDURE SUMMARY: NTA of amylin aggregation, alone or with amylin derivatives
- Type: biochemical, human
- CONDITION DESCRIPTION: NTA, 24 h, 37 °C, amylin 50 μmol L^−1 alone (A) or with 250 μmol L^−1 derivative, pH 7.4; duplicate; p < 0.05 less than A: n1, n2, n3, n4, n5, m5
- Protocol: NTA measurements were performed with a NanoSight LM20 instrument (NanoSight, United Kingdom) equipped with a 640 nm laser and a temperature controlled sample chamber. […] The sample temperature was maintained at 37 °C for the entire duration of the experiment. […] Once again, samples were maintained at 37 °C and 60 s video footage were recorded every 10 min for the first hour and then at 24 h. […]
Marks after values point to notes of the source that are not given here.
MEASURED ENDPOINT: Concentration of aggregates 200–300 nm, 24 h

[
  {
    "SUBSTANCE": "FLVHSS [n3]",
    "RESULT": "1.9* ×10^7 aggregates/mL"
  },
  {
    "SUBSTANCE": "NFGAIL [n4]",
    "RESULT": "1.7* ×10^7 aggregates/mL"
  },
  {
    "SUBSTANCE": "NFGAIL* [m4]",
    "RESULT": "3.3 ×10^7 aggregates/mL"
  },
  {
    "SUBSTANCE": "STNVGS* [m5]",
    "RESULT": "1.4* ×10^7 aggregates/mL"
  },
  {
    "SUBSTANCE": "STNVGS [n5]",
    "RESULT": "2.0* ×10^7 aggregates/mL"
  }
]

(Q) So what does the record say about Concentration of aggregates 200–300 nm, 24 h for Amylin: chemically synthesized full-length human amylin, 37 amino acid long peptide (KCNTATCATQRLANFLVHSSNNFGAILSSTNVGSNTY; Islet amyloid polypeptide; UniProt P10997 34-70, looked up) [reference compound] ?
(A) 2.7 ×10^7 aggregates/mL

(Q) What do you have for FLVHSS* [m3] ?
(A) 4.7 ×10^7 aggregates/mL
